Target: TYK2 (Homo sapiens, UniProt P29597)
Sequence (P29597 whole entry): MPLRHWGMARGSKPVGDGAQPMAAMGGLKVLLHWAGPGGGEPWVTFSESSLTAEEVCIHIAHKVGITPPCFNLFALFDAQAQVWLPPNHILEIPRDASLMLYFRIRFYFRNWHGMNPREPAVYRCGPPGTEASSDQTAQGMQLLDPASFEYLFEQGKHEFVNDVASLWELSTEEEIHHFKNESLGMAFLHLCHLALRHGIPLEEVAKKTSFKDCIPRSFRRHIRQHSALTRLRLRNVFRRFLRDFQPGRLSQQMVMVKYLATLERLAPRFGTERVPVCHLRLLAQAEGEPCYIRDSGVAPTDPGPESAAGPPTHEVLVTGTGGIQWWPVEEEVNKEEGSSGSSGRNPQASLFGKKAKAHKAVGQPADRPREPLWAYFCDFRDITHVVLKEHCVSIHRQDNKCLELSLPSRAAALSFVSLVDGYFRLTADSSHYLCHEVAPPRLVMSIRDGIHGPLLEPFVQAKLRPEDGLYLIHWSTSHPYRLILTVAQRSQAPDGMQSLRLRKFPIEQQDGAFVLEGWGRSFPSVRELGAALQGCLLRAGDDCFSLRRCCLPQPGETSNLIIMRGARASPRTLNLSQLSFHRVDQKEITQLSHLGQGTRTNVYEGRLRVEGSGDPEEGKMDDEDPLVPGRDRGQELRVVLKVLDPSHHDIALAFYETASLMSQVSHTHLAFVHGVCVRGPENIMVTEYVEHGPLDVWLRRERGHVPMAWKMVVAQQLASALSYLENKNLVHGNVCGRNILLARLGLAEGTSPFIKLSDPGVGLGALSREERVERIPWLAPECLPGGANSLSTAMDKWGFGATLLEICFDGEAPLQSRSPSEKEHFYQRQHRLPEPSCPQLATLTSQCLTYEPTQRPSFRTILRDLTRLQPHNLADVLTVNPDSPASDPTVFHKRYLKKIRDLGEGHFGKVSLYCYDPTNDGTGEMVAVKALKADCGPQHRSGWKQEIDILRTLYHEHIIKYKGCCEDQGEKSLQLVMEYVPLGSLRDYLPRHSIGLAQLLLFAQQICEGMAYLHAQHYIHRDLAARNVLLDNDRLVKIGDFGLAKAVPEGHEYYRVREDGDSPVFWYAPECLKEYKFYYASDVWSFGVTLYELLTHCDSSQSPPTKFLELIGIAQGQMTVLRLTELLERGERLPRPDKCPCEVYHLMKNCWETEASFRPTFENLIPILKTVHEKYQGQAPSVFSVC
Assay: TYK2 degradation MSD assay in human PBMC cells
Format: cell-based
Set-up: endogenous in cells; host or cells: human PBMC
Settings: 4 to 24 hours incubation, read-out: TYK2 MSD DC50 rating in human PBMC
Each entry below carries its reported DC50.

{"molecule": "CNc1cc(Nc2cccc(-c3ccc(CN4CCN(C5CCC(c6ccc(-c7ccc8c(c7)n(C)c(=O)n8C7CCC(=O)NC7=O)cc6)CC5)CC4)cn3)c2)nn2c(C(=O)N[C@@H]3C[C@@H]3F)cnc12 (some centres unmarked)", "assayed-system": "TYK2 (Homo sapiens, UniProt P29597)", "DC50": "> 100 nM"}
{"molecule": "CNC(=O)c1cnc(NC(=O)NCCCCCCCCCc2ccc3c(c2)n(C)c(=O)n3C2CCC(=O)NC2=O)cc1Nc1cccc(-c2ncc(F)cn2)c1OC (centres unmarked)", "assayed-system": "TYK2 (Homo sapiens, UniProt P29597)", "DC50": "1 to 10 nM"}
{"molecule": "CNc1cc(Nc2cccc(-c3ccc(CN4CCN(c5ccc(-c6ccc7c(c6)n(C)c(=O)n7C6CCC(=O)NC6=O)cc5)CC4)cn3)c2C(F)F)nn2c(C(=O)N[C@@H]3C[C@@H]3F)cnc12 (some centres unmarked)", "assayed-system": "TYK2 (Homo sapiens, UniProt P29597)", "DC50": "> 100 nM"}
{"molecule": "CNc1cc(Nc2cccn(-c3ccc(C(=O)N4CCC(OCCCc5ccc6c(c5)n(C)c(=O)n6C5CCC(=O)NC5=O)CC4)cn3)c2=O)nn2c(C(=O)N[C@@H]3C[C@@H]3F)cnc12 (some centres unmarked)", "assayed-system": "TYK2 (Homo sapiens, UniProt P29597)", "DC50": "> 100 nM"}
{"molecule": "CNC(=O)c1cnc(Nc2ccc(CN(C)C3CCN(c4ccc5c(c4)n(C)c(=O)n5C4CCC(=O)NC4=O)C3)cn2)cc1Nc1cccc(-c2ncc(F)cn2)c1OC (centres unmarked)", "assayed-system": "TYK2 (Homo sapiens, UniProt P29597)", "DC50": "> 100 nM"}
{"molecule": "CNc1cc(Nc2cccc(CN3CCC(OC4CC(c5ccc6c(c5)n(C)c(=O)n6C5CCC(=O)NC5=O)C4)CC3)c2)nn2c(C(=O)NC3CC3)cnc12 (centres unmarked)", "assayed-system": "TYK2 (Homo sapiens, UniProt P29597)", "DC50": "> 100 nM"}
{"molecule": "CNc1cc(-c2ccc(N3CCC(CN4CC5(CCN(c6cccc7c6n(C)c(=O)n7C6CCC(=O)NC6=O)CC5)C4)CC3)cc2)nn2c(C(=O)N[C@@H]3C[C@@H]3F)cnc12 (mixture of isomers)", "assayed-system": "TYK2 (Homo sapiens, UniProt P29597)", "DC50": "> 100 nM"}
{"molecule": "CNc1cc(Nc2cccc(-c3ccc(C(=O)N4CCN([C@H]5CC[C@H](c6ccc(-c7ccc8c(c7)n(C)c(=O)n8C7CCC(=O)NC7=O)cc6)CC5)CC4)cn3)c2)nn2c(C(=O)N[C@@H]3C[C@@H]3F)cnc12 (some centres unmarked)", "assayed-system": "TYK2 (Homo sapiens, UniProt P29597)", "DC50": "> 100 nM"}
{"molecule": "Cn1c(=O)n(C2CCC(=O)NC2=O)c2ccc(CCCCC(=O)N3CCC(n4cc(-c5ccc6ncc(C(=O)N[C@@H]7C[C@@H]7F)n6n5)cn4)CC3)cc21 (some centres unmarked)", "assayed-system": "TYK2 (Homo sapiens, UniProt P29597)", "DC50": "> 100 nM"}
{"molecule": "CNc1cc(Nc2cccn(-c3ccc(C(=O)N4CCC(CN(C)C5CCN(c6ccc7c(c6)n(C)c(=O)n7C6CCC(=O)NC6=O)CC5)C4)cn3)c2=O)nn2c(C(=O)N[C@@H]3C[C@@H]3F)cnc12 (some centres unmarked)", "assayed-system": "TYK2 (Homo sapiens, UniProt P29597)", "DC50": "> 100 nM"}
{"molecule": "CNc1cc(Nc2cccn(-c3ccc(C(=O)N4CC5(CCN(c6ccc(-c7ccc8c(c7)n(C)c(=O)n8C7CCC(=O)NC7=O)cn6)CC5)C4)cn3)c2=O)nn2c(C(=O)N[C@@H]3C[C@@H]3F)cnc12 (some centres unmarked)", "assayed-system": "TYK2 (Homo sapiens, UniProt P29597)", "DC50": "< 1 nM"}
{"molecule": "CNC(=O)c1cnc(Nc2ccc(CN3CCC(c4cccc5c4n(C)c(=O)n5C4CCC(=O)NC4=O)C3)cn2)cc1Nc1cccc(-c2ncc(F)cn2)c1OC (centres unmarked)", "assayed-system": "TYK2 (Homo sapiens, UniProt P29597)", "DC50": "> 100 nM"}
{"molecule": "CNc1cc(Nc2cccc(C(=O)NCCCCCCCCc3ccc4c(c3)n(C)c(=O)n4C3CCC(=O)NC3=O)c2)nn2c(C(=O)N[C@@H]3C[C@@H]3F)cnc12 (some centres unmarked)", "assayed-system": "TYK2 (Homo sapiens, UniProt P29597)", "DC50": "< 1 nM"}
{"molecule": "CNc1cc(Nc2cccc(-c3ccc(C(=O)N4CCN(c5ccc(-c6ccc7c(c6)n(C)c(=O)n7C6CCC(=O)NC6=O)cc5)CC4)cn3)c2)nn2c(C(=O)N[C@@H]3C[C@@H]3F)cnc12 (some centres unmarked)", "assayed-system": "TYK2 (Homo sapiens, UniProt P29597)", "DC50": "> 100 nM"}
{"molecule": "CNC(=O)c1cnc(Nc2ccc(C(=O)NCCCCCCCCc3cccc4c3n(C)c(=O)n4C3CCC(=O)NC3=O)cn2)cc1Nc1cccc(-c2ncc(F)cn2)c1OC (centres unmarked)", "assayed-system": "TYK2 (Homo sapiens, UniProt P29597)", "DC50": "1 to 10 nM"}
{"molecule": "CNc1cc(Nc2cccn(-c3ccc(C(=O)N4CCC(N5CC(c6ccc7c(c6)n(C)c(=O)n7C6CCC(=O)NC6=O)C5)CC4)cn3)c2=O)nn2c(C(=O)N[C@@H]3C[C@@H]3F)cnc12 (some centres unmarked)", "assayed-system": "TYK2 (Homo sapiens, UniProt P29597)", "DC50": "> 100 nM"}
{"molecule": "CNc1cc(-c2cn(C)c3c(C4CCN(CC5CCN(c6ccc(-c7ccc8c(c7)n(C)c(=O)n8C7CCC(=O)NC7=O)cc6)CC5)CC4)cccc23)nn2c(C(=O)N[C@@H]3C[C@@H]3F)cnc12 (mixture of isomers)", "assayed-system": "TYK2 (Homo sapiens, UniProt P29597)", "DC50": "> 100 nM"}
{"molecule": "CNc1cc(Nc2cccn(-c3ccc(C(=O)NCCCCCCCc4ccc5c(c4)n(C)c(=O)n5C4CCC(=O)NC4=O)cn3)c2=O)nn2c(C(=O)N[C@@H]3C[C@@H]3F)cnc12 (some centres unmarked)", "assayed-system": "TYK2 (Homo sapiens, UniProt P29597)", "DC50": "< 1 nM"}
{"molecule": "CNc1cc(Nc2cccc(CN3CC4(C3)CN(c3ncc(C#Cc5ccc6c(c5)n(C)c(=O)n6C5CCC(=O)NC5=O)cn3)C4)c2)nn2c(C(=O)NC3CC3)cnc12 (centres unmarked)", "assayed-system": "TYK2 (Homo sapiens, UniProt P29597)", "DC50": "> 100 nM"}
{"molecule": "CNc1cc(Nc2cccc(-c3ccc(CN4CCN(c5ccc(-c6ccc7c(c6)n(C)c(=O)n7C6CCC(=O)NC6=O)cc5)CC4)cn3)c2OC)nn2ccnc12 (centres unmarked)", "assayed-system": "TYK2 (Homo sapiens, UniProt P29597)", "DC50": "> 100 nM"}
